system: M19-MEL melanoma; experiment: NCI tumour cell line growth inhibition, 48 h
Assignment: determine reported TGI for the given compounds.

Can you share its TGI? I mean this compound: COC(=O)Cc1nc2ccccc2o1 > 100 µM

Query O=C(/C(=C/c1ccccc1)c1ccccc1)N1c2ccccc2CC1c1c[nH]c2ccccc12 (stereo not drawn) next > 100 µM

Query CCOC(=O)NC(=O)c1c[nH]c(=O)[nH]c1=O next > 100 µM

###

tested on: K-562 leukemia; experiment: NCI tumour cell line growth inhibition, 48 h
Assignment: determine reported TGI for the given compounds.

Can you share its TGI? I mean this compound: O=C(c1ccccc1)C1C(C(=O)c2ccccc2)C(c2ccccc2)N(c2ccccc2)C1c1ccccc1 (stereo not given) > 100 µM

Query C1CC[N-]CC1.CC(=N\O)/C(C)=N/O.CC(=N\O)/C(C)=N/O.[CH2-]CCN1CCOCC1.[Co+2] next > 100 µM

Query CCOP(=O)(OCC)C(C)(C)OC(=O)NC#N next > 100 µM

Query C=CC(Br)(CBr)CCC(Br)C(C)C (stereo not given) next 6.94 µM

Query Nc1c(C(=O)Nc2cccc(Br)c2)sc2nc3c(cc12)C(O)CCC3 (stereo not given) next > 38.4 µM

Query COc1cc([C@@H]2c3cc4c(cc3C[C@H]3COC(=O)[C@@H]32)OCO4)cc2c1OCO2 next > 40 µM

Query COc1ccc(-c2c(N)n[nH]c2-c2cc(OC)c(OC)c(OC)c2)cc1 next > 100 µM

Query CC(=O)CC(=O)/C=C/c1cccs1 next > 100 µM

Query COc1cc(C=O)cc(C=Nc2ccc(S(N)(=O)=O)cc2)c1O next > 100 µM

Query C[N+](C)([O-])CCCNc1ccnc2cccc([N+](=O)[O-])c12 next > 100 µM

###

test system: LOX IMVI melanoma; experiment: NCI tumour cell line growth inhibition, 48 h
readout-type: TGI

Can you share its TGI? I mean this compound: Cc1sc2nc3n(c(=O)c2c1C)N=C(c1ccc([N+](=O)[O-])cc1)CS3 > 100 µM

Query CC1(C)[C@@H](OC(N)=O)C=C[C@]2(C=O)[C@H]3CC[C@]4(C)[C@@H](c5ccc(=O)oc5)[C@@H](Cl)C[C@]4(O)C3=CC[C@@H]12 next 0.00885 µM

Query N#Cc1c2c(c(-c3cccs3)n(C3OC(CO)C(O)C(O)C3O)c1=S)CCc1ccccc1-2 (stereo not given) next > 100 µM

Query COC[C@@H](Cc1ccc(OC)c(OC)c1)[C@@H](COC)Cc1ccc(OC)c(OC)c1 next > 100 µM

Query O=C(Nc1cccc(C(F)(F)F)c1)c1cc(Br)cc(Br)c1O next 4.95 µM

Query CCOC(=O)CC[C@H](N)C(=O)N[C@H](Cc1ccc(N(CCCl)CCCl)cc1)C(=O)OCC next > 39.1 µM

Query Oc1c(CN2CCOCC2)cc(COCc2ccccc2)c2cccnc12 next 10.4 µM

Query COc1cccc(C2=C(c3cn(C)c4cccc(OC)c34)C(=O)NC2=O)c1 next > 25 µM

Query COc1ccc2c(c1)OCCC1=C2SCC2(C)CCN=C12 (stereo not given) next > 100 µM

Query CCOC(=O)NC(=O)c1c[nH]c(=O)[nH]c1=O next > 100 µM

###

test system: MDA-MB-435; experiment: NCI tumour cell line growth inhibition, 48 h
Assignment: determine reported TGI for the given compounds.
Give your result in µM as a bare value.

Can you share its TGI? I mean this compound: CCCCOc1ccc(/C=N/Nc2cc(C)nc3ccc(Cl)cc23)cc1 3.17

Query CC1CC[C@@]2(OC1)OC1C[C@H]3[C@@H]4CCC5CC(O)CC[C@]5(C)[C@H]4C/C(=N\N(C)C)[C@]3(C)C1[C@@H]2C (stereo not given in full) next 58.2

Query O=[As]c1ccc(C(=O)c2ccc(Oc3ccccc3)cc2)cc1 (stereo not given) next 0.176

Query Cn1ncc(-c2ccc3c(=O)[nH]nc(CN)c3c2)c1-c1c(F)cc2ccccc2c1C#N next 14.5
